test: Cytotoxicity against human Raji cells assessed as cell viability at 1000 molar ratio; type: cell-based; conditions: read-out: Activity
Doc: threshold 60% (exclusive). Items with viability at 1000 molar ratio beneath it return 1.0; others return 0.0.

Consider the worked cases shown below.
> print(dat)
                                   molecule  assigned.label
1       Cc1cnc2c(c1)C(=O)c1c(O)ccc(O)c1C2=O             1.0
2               O=C1C=CC(=O)c2c(O)ccc(O)c21             1.0
3  CC1C=CNC2=C1C(=O)c1c(O)ccc(O)c1C2=O (stereo not drawn)             1.0
4          Cc1cnc2c(c1)C(=O)c1cccc(O)c1C2=O             1.0
5            Cc1ccnc2c1C(=O)c1cccc(O)c1C2=O             1.0

Please check: viability at 1000 molar ratio for O=C1c2cccc(O)c2C(=O)c2c(O)cccc21 , strictly under 60% or not? 0.0

Please check: viability at 1000 molar ratio for O=C1c2ccccc2C(=O)c2occc21 , strictly under 60% or not? 1.0

Please check: viability at 1000 molar ratio for Cc1cnc2c(c1)C(=O)c1ccccc1C2=O , strictly under 60% or not? 0.0

Please check: viability at 1000 molar ratio for CC(C)=CC[C@@H](O)C1=CC(=O)c2c(O)ccc(O)c2C1=O , strictly under 60% or not? 1.0

Please check: viability at 1000 molar ratio for CN(C)C1=CC(=O)c2c(O)ccc(O)c2C1=O , strictly under 60% or not? 1.0

Please check: viability at 1000 molar ratio for O=C1c2ccc3c(c2C(=O)c2cccc(O)c21)OCO3 , strictly under 60% or not? 0.0

---

test: Cytotoxicity against human Raji cells assessed as cell viability at 100 molar ratio; assay type: cell-based; conditions: read-out: Activity
ASSAY_ENDPOINT: viability at 100 molar ratio

Use the examples below as a reference point.
COMPOUND	RESULT
Cc1cnc2c(c1)C(=O)c1ccccc1C2=O	> 80%
COc1ccc(OC)c2c1C(=O)c1nccc(C)c1C2=O	> 80%
Cc1cnc2c(c1)C(=O)c1cccc(O)c1C2=O	60%

List reported viability at 100 molar ratio for each of these compounds:
1. CC1=CC(=O)c2ccccc2C1=O
2. O=C1c2ccccc2C(=O)c2occc21
3. Cc1ccnc2c1C(O)c1ccccc1-2 (stereo not drawn)
4. O=C1c2ccccc2C(=O)c2c1ccc(O)c2O
5. CC1C=CNC2=C1C(=O)c1c(O)ccc(O)c1C2=O (stereo not drawn)

1: 70%; 2: 10%; 3: > 80%; 4: > 80%; 5: > 80%

List reported viability at 100 molar ratio for each of these compounds:
1. O=C1C=CC(=O)c2ccccc21
2. O=C1c2ccccc2C(=O)c2c(O)c(O)cc(O)c21
3. O=C1c2ccc(O)cc2C(=O)c2ccc(O)cc21
4. O=C1C=CC(=O)c2cc(O)ccc21
5. CN(C)C1=CC(=O)c2c(O)cccc2C1=O
6. O=C1c2ccccc2C(=O)c2cnccc21
7. Cc1ccnc2c1C(=O)c1ccccc1-2
8. COc1cccc2c1C(=O)c1c(ccc3c1OCO3)C2=O

1: 50%; 2: > 80%; 3: > 80%; 4: 60%; 5: > 80%; 6: > 80%; 7: > 80%; 8: > 80%

---

assay: Cytotoxicity against human Raji cells assessed as cell viability at 500 molar ratio; assay type: cell-based; conditions: read-out: Activity
ASSAY_ENDPOINT: viability at 500 molar ratio (%)
One number for each entry, in %.

Use the examples below as a reference point.
> print(dat)
                            given.smiles  quantitative.readout
1              O=C1c2ccccc2C(=O)c2occc21                    10
2            O=C1C=CC(=O)c2c(O)ccc(O)c21                    40
3              O=C1c2ccccc2C(=O)c2sccc21                     0
4  CC1(c2cc3c(o2)C(=O)c2ccccc2C3=O)OCCO1                    10

List reported viability at 500 molar ratio for each of these compounds:
1. Cc1ccc2c(n1)C(=O)c1c(O)cccc1C2=O
2. CC(=O)c1cc2c(o1)C(=O)c1ccccc1C2=O
3. CC(C)=CC[C@@H](O)C1=CC(=O)c2c(O)ccc(O)c2C1=O

1. 50
2. 0
3. 10

---

experiment: Cytotoxicity against human Raji cells assessed as cell viability at 500 molar ratio; type: cell-based; conditions: read-out: Activity
ASSAY_ENDPOINT: viability at 500 molar ratio

Use the examples below as a reference point.
> print(dat)
                             given.smiles  result
1     O=C1c2ccccc2C(=O)c2c(O)c(O)cc(O)c21   > 80%
2  COc1c(CO)c(O)cc2c1C(=O)c1cccc(O)c1C2=O   > 80%

Could you now consider this next compound?
Given item COc1ccc(OC)c2c1C(=O)c1nccc(C)c1C2=O , the value recorded as its viability at 500 molar ratio is > 80%

---

test: Cytotoxicity against human Raji cells assessed as cell viability at 500 molar ratio; assay type: cell-based; conditions: read-out: Activity
ASSAY_ENDPOINT: viability at 500 molar ratio

List reported viability at 500 molar ratio for each of these compounds:
1. CN(C)C1=CC(=O)c2c(O)cccc2C1=O
2. CC1C=CNC2=C1C(=O)c1cc(O)ccc1C2=O (stereo not drawn)
3. O=C(O)c1cc(O)c2c(c1)[C@@H]([C@H]1c3cc(C(=O)O)cc(O)c3C(=O)c3c(O[C@@H]4O[C@H](CO)[C@@H](O)[C@H](O)[C@H]4O)cccc31)c1cccc(O[C@@H]3O[C@H](CO)[C@@H](O)[C@H](O)[C@H]3O)c1C2=O [SENNOSIDE B]

["> 80%", "> 80%", "> 80%"]

---

experiment: Cytotoxicity against human Raji cells assessed as cell viability at 1000 molar ratio; type: cell-based; conditions: read-out: Activity
ASSAY_ENDPOINT: viability at 1000 molar ratio (%)
Numbers only, in %.

Use the examples below as a reference point.
> print(dat)
                                   compound                 assay.endpoint  quantitative.readout
1       COc1cccc2c1C(=O)c1c(ccc3c1OCO3)C2=O  viability at 1000 molar ratio                    60
2            Cc1ccnc2c1C(=O)c1cc(O)ccc1C2=O  viability at 1000 molar ratio                    60
3  O=C1c2ccccc2C(=O)c2c1ccc(O)c2O [ATHRAQUINONES A]  viability at 1000 molar ratio                    60
4  CC1C=CNC2=C1C(=O)c1cc(O)ccc1C2=O (configuration not stated)  viability at 1000 molar ratio                    70
5          Cc1ccc2c(n1)C(=O)c1c(O)cccc1C2=O  viability at 1000 molar ratio                    10

List reported viability at 1000 molar ratio for each of these compounds:
1. O=C1c2ccccc2C(=O)c2c(O)c(O)cc(O)c21 [PURPURIN]
2. CN(C)C1=CC(=O)c2cc(O)ccc2C1=O
3. O=C1c2ccccc2C(=O)c2cnccc21
4. O=C1c2cccc(O)c2C(=O)c2cccc(O)c21 [ANTHRARUFIN]
5. Cc1ccc2c(n1)C(=O)c1c(O)ccc(O)c1C2=O
6. COc1ccc(OC)c2c1C(=O)c1nccc(C)c1C2=O
7. O=C1C=CC(=O)c2c(O)cccc21 [JUGLONE]
8. COc1ccc2c(c1)C(=O)c1ccc3c(c1C2=O)OCO3

1: 70; 2: 60; 3: 10; 4: 70; 5: 10; 6: 70; 7: 40; 8: 70

List reported viability at 1000 molar ratio for each of these compounds:
1. O=C1c2ccccc2C(=O)c2c(O)ccc(O)c21 [QUINIZARIN]
2. O=C1c2ccccc2-c2ncccc21
3. Cc1ccnc2c1C(=O)c1c(O)ccc(O)c1C2=O
4. COc1c(CO)c(O)cc2c1C(=O)c1ccccc1C2=O [DAMNACANTHOL]
5. O=C1C=CC(=O)c2cc(O)ccc21
6. COc1c(C=O)c(O)cc2c1C(=O)c1ccccc1C2=O [DAMNACANTHAL]

1: 70; 2: 70; 3: 60; 4: 70; 5: 10; 6: 60

---

Record form. Attribute: viability at 500 molar ratio. Fill in for each entry.
assay: Cytotoxicity against human Raji cells assessed as cell viability at 500 molar ratio; assay type: cell-based; details: read-out: Activity

List reported viability at 500 molar ratio for each of these compounds:
1. O=C1c2ccccc2C(=O)c2c1ccc(O)c2O
2. COc1ccc2c(c1)C(=O)c1ccc3c(c1C2=O)OCO3
3. Cc1ccnc2c1C(=O)c1ccccc1-2
4. O=C1c2ccccc2C(=O)c2c(O)ccc(O)c21

1: > 80%; 2: > 80%; 3: > 80%; 4: > 80%
